Listing of entries alongside the reported protein stability index.
- Measurement Protocol: protein stability index of a GFP-peptide fusion (GPS, HEK-293T) (PSI 1-6); higher = more stable;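 also: 24-mer peptide tiles fused after GFP, lentivirally expressed, FACS-sorted into six equal bins by GFP/DsRed ratio, decoded by Illumina sequencing, PSI is the read-weighted mean bin number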
- Applied Conditions: treatment: MLN4924 1 uM, 8 h; c terminus: a fixed tail appended
Lab note: record the figure alone, no unit after it.

>>> test_result("SDQDPRVRTAAIKAMLQLHERGLK [INTS4]")
3.79

Quick one: protein stability index for AAHLALLLLCGTISLRVYRKVLQA [RTN2] ?
2.51

Quick one: protein stability index for GGIPALVKMLGSPVDSVLFYAITT [CTNNB1] ?
3.07

I'd like to know its protein stability index. The sequence in question is PEDLQTDLAKLVDQQNPTLGETPE [ZNF449]
5.73

----------
- Measurement Protocol: protein stability index of a GFP-peptide fusion (GPS, HEK-293T) (PSI 1-6); higher = more stable
- Applied Conditions: treatment: MLN4924 1 uM, 8 h; c terminus: a fixed tail appended
# protein stability index per entry
Please respond with just the number, no unit label.

For orientation, consider the following solved cases.
>>> test_result("ELRDSSAYHVPNRTLASGRLLSYR [DNAAF3]")
3.25
>>> test_result("DVRMGGSFRGAFSNSEKAKNIFRI [NET1]")
2.44
>>> test_result("KEAQYIRTELVEQAFRAIDRADYY [PCMTD2]")
2.88
>>> test_result("RLPFLSAFERQQVENRVVEEAKGL [ZBED1]")
4.2
>>> test_result("PPKASEQETAKEEDGSVELESQVQ [C18orf25]")
5.67
>>> test_result("VGDILWEHLEILQKEDVKPYQVNG [ETS1]")
3.05
>>> test_result("FWEEHKASLGREESRAPSPLLHKD [CBY2]")
4.71
>>> test_result("EIPIHGNGEARQLPEDDGLEQDLQ [ARFIP2]")
5.28
>>> test_result("TMLATRNFSAAKSLLNKKADGVKP [CAMK2B]")
4.02
>>> test_result("GVVMKVRIPTCHDKPGTTQIVQLT [DENND6A]")
2.15

Could you tell me which protein stability index is on file for RAKLDELEGALHQAKEELARMLRE [KRT71] ?
3.7

Which protein stability index is listed for DPFTVPTISFICRELDAISTNEEE [PRIM1] ?
4.78

What protein stability index value was documented for this sequence, SLLLTPQENESLFTFLGKKCVTMS [WASL] ?
2.5

Report protein stability index for TWLTTPKSTWPRYSKPGLSMRLLE [TCF25] please.
2.29

Reported protein stability index, sequence RLWSHRSYKARLPLRLFLIIANTM [SCD] : ____
2.13

Field request: protein stability index | item: PSPVRAPAPSPAKEERKTEVVMNS [PALM]
5.53

So what does the record say about protein stability index for LEPDEDPLCMLLLIDHLALRARNY [TCF25] ?
2.37

Data credit: the supplement of paper PMC10567573
